# measured_target: Acyl-CoA:cholesterol acyltransferase (Oryctolagus cuniculus)
# protocol_details: In vitro inhibitory activity against acyl coenzyme A:cholesterol acyltransferase in liver microsomes isolated from cholesterol-fed rabbits
pIC50: −log10 of the molar value.

compound	pIC50
CC(C)c1cccc(C(C)C)c1NC(=O)C1c2ccccc2OCc2ncccc21 (stereo not given)	6.19
CC(C)c1cccc(C(C)C)c1NC(=O)C1c2ccccc2CCc2ccc(Br)cc21 (stereo not given)	7.41
CC(C)c1cccc(C(C)C)c1NC(=O)C1c2ccccc2COc2cc(Br)ccc21 (stereo not given)	6.74
Cc1ccc2c(c1)C(C(=O)Nc1c(Cl)cccc1Cl)c1ccccc1CO2 (stereo not given)	6.72
CC(C)c1cccc(C(C)C)c1NC(=O)C1c2ccccc2CCc2ccccc21	7.40
CCc1cccc(CC)c1NC(=O)C1c2ccccc2COc2ccc(Br)cc21 (stereo not given)	6.60
CC(C)c1cccc(C(C)C)c1NC(=O)C1c2ccccc2COc2ccc(C#N)cc21 (stereo not given)	6.31
O=C(Nc1ccc(F)cc1F)C1c2ccccc2COc2ccc(Br)cc21 (stereo not given)	6.24
Cc1cc(Br)c2c(c1)C(C(=O)Nc1c(C(C)C)cccc1C(C)C)c1ccccc1CO2 (stereo not given)	7.00
CCc1cccc(CC)c1NC(=O)C1c2ccccc2COc2ccc(C(C)C)cc21 (stereo not given)	6.30

====

# measured_target: Acyl-CoA:cholesterol acyltransferase (Oryctolagus cuniculus, UniProt Q95214)
# Sequence (Q95214 whole entry): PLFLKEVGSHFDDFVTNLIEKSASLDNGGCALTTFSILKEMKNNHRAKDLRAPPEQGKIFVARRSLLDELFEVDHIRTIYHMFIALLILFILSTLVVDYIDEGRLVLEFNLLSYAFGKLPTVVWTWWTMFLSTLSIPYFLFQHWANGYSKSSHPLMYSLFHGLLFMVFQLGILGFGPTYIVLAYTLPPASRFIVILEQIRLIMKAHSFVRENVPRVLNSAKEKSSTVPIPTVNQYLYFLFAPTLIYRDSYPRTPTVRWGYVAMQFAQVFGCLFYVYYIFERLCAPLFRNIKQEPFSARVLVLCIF
# protocol_details: In vitro inhibitory activity against acyl coenzyme A:cholesterol acyltransferase in liver microsomes isolated from cholesterol-fed rabbits
pIC50: −log10 of the molar value.
endpoint_name: pIC50

molecule	endpoint_name	result_number
CC(C)c1cccc(C(C)C)c1NC(=O)C1c2ccccc2C=Cc2ccccc21	pIC50	7.60
CC(C)c1cccc(C(C)C)c1NC(=O)C1c2ccccc2COc2ccc(CO)cc21 (stereo unspecified)	pIC50	6.24
O=C(Nc1c(Cl)cccc1Cl)C1c2ccccc2COc2cc(Br)ccc21 (stereo unspecified)	pIC50	6.03
CC(C)c1cccc(C(C)C)c1NC(=O)C1c2ccccc2COc2ccc(I)cc21 (stereo unspecified)	pIC50	7.46
COC(=O)c1cc(C)cc2c1OCc1ccccc1C2C(=O)Nc1c(C(C)C)cccc1C(C)C (stereo unspecified)	pIC50	7.57
CC(C)c1cccc(C(C)C)c1NC(=O)C1c2cc(Br)ccc2COc2ccccc21 (stereo unspecified)	pIC50	6.72

====

# measured_target: Acyl-CoA:cholesterol acyltransferase (Oryctolagus cuniculus, UniProt Q95214)
# protocol_details: In vitro inhibitory activity against acyl coenzyme A:cholesterol acyltransferase in liver microsomes isolated from cholesterol-fed rabbits
pIC50: −log10 of the molar value.
Below, each of the compounds is paired with its reported pIC50 value.
endpoint_name: pIC50

compound	result_number
Cc1ccc2c(c1)C(C(=O)Nc1c(C)cccc1Cl)c1ccccc1CO2 (stereo not given)	6.59
Cc1ccc2c(c1)C(C(=O)Nc1c(Br)cccc1Br)c1ccccc1CO2 (stereo not given)	6.72
COC(=O)c1ccc2c(c1)C(C(=O)Nc1c(C(C)C)cccc1C(C)C)c1ccccc1CO2 (stereo not given)	6.74
Cc1ccc2c(c1)C(C(=O)Nc1c(C(C)C)cccc1C(C)C)c1ccccc1CC2 (stereo not given)	7.26
Cc1cc(C)c(NC(=O)C2c3ccccc3COc3ccc(C)cc32)c(C)c1 (stereo not given)	6.96
O=C(Nc1c(Cl)cccc1Cl)C1c2ccccc2COc2ccc(Br)cc21 (stereo not given)	7.13
Cc1cc2c(cc1C)C(C(=O)Nc1c(C(C)C)cccc1C(C)C)c1ccccc1CO2 (stereo not given)	7.19
CC(C)c1cccc(C(C)C)c1NC(=O)C1c2ccccc2COc2ccc(Br)cc21 (stereo not given)	7.64
COc1cc(OC)c(NC(=O)C2c3ccccc3COc3ccc(C)cc32)c(OC)c1 (stereo not given)	6.24
CC(C)c1cccc(C(C)C)c1NC(=O)C1c2ccccc2COc2ccc([N+](=O)[O-])cc21 (stereo not given)	6.62
CC(C)c1cccc(C(C)C)c1NC(=O)C1c2ccccc2COc2ccc(C(F)(F)F)cc21 (stereo not given)	6.80
CCc1ccc2c(c1)C(C(=O)Nc1c(C(C)C)cccc1C(C)C)c1ccccc1CO2 (stereo not given)	6.89
CC(C)c1cccc(C(C)C)c1NC(=O)C1c2ccccc2COc2ccc(F)cc21 (stereo not given)	6.68
Cc1ccc2c(c1)C(C(=O)Nc1ccccc1C(C)C)c1ccccc1CO2 (stereo not given)	6.14
CC(C)c1cccc(C(C)C)c1NC(=O)C1c2ccccc2COc2ccc(C(=O)N(C)C)cc21 (stereo not given)	6.40
Cc1ccc2c(c1)C(C(=O)Nc1c(C(C)C)cccc1C(C)C)c1ccccc1CO2 (stereo not given)	7.30
CC(C)c1cccc(C(C)C)c1NC(=O)C1c2ccccc2CSc2ccc(Br)cc21 (stereo not given)	6.82
CSc1ccc2c(c1)C(C(=O)Nc1c(C(C)C)cccc1C(C)C)c1ccccc1CO2 (stereo not given)	8.15
CCc1cccc(CC)c1NC(=O)C1c2ccccc2COc2ccc(C)cc21 (stereo not given)	6.57
CC(C)c1cccc(C(C)C)c1NC(=O)C1c2cc(Br)ccc2OCc2ncccc21 (stereo not given)	7.11

====

Below, each of the compounds is paired with its reported pIC50 value.
# measured_target: Acyl-CoA:cholesterol acyltransferase (Oryctolagus cuniculus)
# protocol_details: In vitro inhibitory activity against acyl coenzyme A:cholesterol acyltransferase in liver microsomes isolated from cholesterol-fed rabbits
pIC50: −log10 of the molar value.
endpoint_name: pIC50

compound	measured_target	endpoint_name	result_number
CC(C)c1cccc(C(C)C)c1NC(=O)C1c2ccccc2COc2ccc(Cl)cc21 (stereo not given)	Acyl-CoA:cholesterol acyltransferase (Oryctolagus cuniculus)	pIC50	6.82
Cc1cccc(C)c1NC(=O)C1c2ccccc2COc2ccc(C(C)C)cc21 (stereo not given)	Acyl-CoA:cholesterol acyltransferase (Oryctolagus cuniculus)	pIC50	6.44
CC(C)c1cccc(C(C)C)c1NC(=O)C1c2cc(Br)ccc2COc2ccc(Br)cc21 (stereo not given)	Acyl-CoA:cholesterol acyltransferase (Oryctolagus cuniculus)	pIC50	7.24
COc1ccc2c(c1)C(C(=O)Nc1c(C(C)C)cccc1C(C)C)c1ccccc1CO2 (stereo not given)	Acyl-CoA:cholesterol acyltransferase (Oryctolagus cuniculus)	pIC50	6.85
CC(C)c1cccc(C(C)C)c1NC(=O)C1c2ccccc2C(=O)N(C)c2ccc(Br)cc21 (stereo not given)	Acyl-CoA:cholesterol acyltransferase (Oryctolagus cuniculus)	pIC50	6.62
CC(C)c1cccc(C(C)C)c1NC(=O)C1c2ccccc2COc2ccccc21 (stereo not given)	Acyl-CoA:cholesterol acyltransferase (Oryctolagus cuniculus)	pIC50	7.03
Cc1ccc2c(c1)C(C(=O)Nc1c(C)cccc1C)c1ccccc1CO2 (stereo not given)	Acyl-CoA:cholesterol acyltransferase (Oryctolagus cuniculus)	pIC50	6.46
Cc1cccc(C)c1NC(=O)C1c2ccccc2COc2ccc(C(C)(C)C)cc21 (stereo not given)	Acyl-CoA:cholesterol acyltransferase (Oryctolagus cuniculus)	pIC50	6.30
Cc1ccc2c(c1)C(C(=O)Nc1c(C(C)C)cccc1C(C)C)c1cc(Br)ccc1CO2 (stereo not given)	Acyl-CoA:cholesterol acyltransferase (Oryctolagus cuniculus)	pIC50	6.92
CC(C)(C)c1ccc2c(c1)C(C(=O)Nc1c(Cl)cccc1Cl)c1ccccc1CO2 (stereo not given)	Acyl-CoA:cholesterol acyltransferase (Oryctolagus cuniculus)	pIC50	6.38

====

# measured_target: Acyl-CoA:cholesterol acyltransferase (Oryctolagus cuniculus)
# protocol_details: In vitro inhibitory activity against Acyl coenzyme A:cholesterol acyltransferase in liver microsomes isolated from cholesterol-fed rabbits
# conditions: Microsome, concentration not given here

molecule	inhibition
Cc1ccc2c(c1)C(C(=O)Nc1ccccc1)c1ccccc1CO2 (centres undefined)	15%
Cc1cc(C(=O)O)c2c(c1)C(C(=O)Nc1c(C(C)C)cccc1C(C)C)c1ccccc1CO2 (centres undefined)	28%
CC(C)c1cccc(C(C)C)c1NC(=O)C1c2ccccc2COc2ccc(C(=O)O)cc21 (centres undefined)	1%
CC(C)c1cccc(C(C)C)c1/N=C(\S)C1c2ccccc2COc2ccc(Br)cc21 (centres undefined)	33%

The measured values listed here are drawn from ChEMBL document CHEMBL1127699.
